Data origin, for the record: paper PMC6222902

Molecular target: human recombinant DPP-IV (Homo sapiens, UniProt P27487)
Sequence (P27487 whole entry): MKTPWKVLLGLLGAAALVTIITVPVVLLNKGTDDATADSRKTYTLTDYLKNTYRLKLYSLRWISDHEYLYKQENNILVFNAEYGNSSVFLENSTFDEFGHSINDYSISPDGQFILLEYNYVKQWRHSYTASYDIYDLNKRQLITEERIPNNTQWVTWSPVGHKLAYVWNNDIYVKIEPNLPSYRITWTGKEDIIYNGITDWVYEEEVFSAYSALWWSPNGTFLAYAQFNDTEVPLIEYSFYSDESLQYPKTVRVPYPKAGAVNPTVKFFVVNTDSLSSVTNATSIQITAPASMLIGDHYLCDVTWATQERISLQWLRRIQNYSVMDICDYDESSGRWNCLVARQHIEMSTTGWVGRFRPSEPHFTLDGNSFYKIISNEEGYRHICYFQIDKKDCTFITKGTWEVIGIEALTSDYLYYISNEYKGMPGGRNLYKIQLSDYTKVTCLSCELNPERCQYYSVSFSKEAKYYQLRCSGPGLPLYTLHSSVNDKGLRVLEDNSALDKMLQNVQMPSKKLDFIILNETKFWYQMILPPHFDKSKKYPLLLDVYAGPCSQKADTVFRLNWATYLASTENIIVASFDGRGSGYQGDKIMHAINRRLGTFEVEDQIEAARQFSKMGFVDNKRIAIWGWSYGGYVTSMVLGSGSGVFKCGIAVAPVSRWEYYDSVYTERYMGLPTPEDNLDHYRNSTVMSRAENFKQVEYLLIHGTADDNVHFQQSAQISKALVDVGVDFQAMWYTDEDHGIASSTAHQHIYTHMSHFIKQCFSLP
Assay: DPP-IV inhibitor screening assay kit (Cayman), fluorogenic substrate Gly-Pro-AMC
Details: mean ± SD of three independent experiments
pIC50: −log10 of the molar value.
Form field: pIC50 (one value per entry).

| compound | pIC50 |
| --- | --- |
| CC1OC(OCC2OC(Oc3c(-c4ccc(O)cc4)oc4cc(OC5OC(C)C(O)C(O)C5O)cc(O)c4c3=O)C(O)C(O)C2O)C(O)C(O)C1O (stereo not shown) | 4.43 |
| CC1OC(Oc2cc(O)c3c(=O)c(OC4OC(CO)C(O)C(O)C4OC4OC(CO)C(O)C(O)C4O)c(-c4ccc(O)cc4)oc3c2)C(O)C(O)C1O (stereo not shown) | 4.55 |
| O=c1c(O)c(-c2ccc(O)cc2)oc2cc(O)cc(O)c12 | 4.29 |
| CC1OC(OCC2OC(Oc3c(-c4ccc(O)cc4)oc4cc(OC5OC(C)C(O)C(O)C5O)cc(O)c4c3=O)C(OC3OC(CO)C(O)C(O)C3O)C(O)C2O)C(O)C(O)C1O (stereo not shown) | 4.44 |
